Target entity: htau40 (Homo sapiens, UniProt P10636)
Sequence (P10636 1-441 isoform P10636-8): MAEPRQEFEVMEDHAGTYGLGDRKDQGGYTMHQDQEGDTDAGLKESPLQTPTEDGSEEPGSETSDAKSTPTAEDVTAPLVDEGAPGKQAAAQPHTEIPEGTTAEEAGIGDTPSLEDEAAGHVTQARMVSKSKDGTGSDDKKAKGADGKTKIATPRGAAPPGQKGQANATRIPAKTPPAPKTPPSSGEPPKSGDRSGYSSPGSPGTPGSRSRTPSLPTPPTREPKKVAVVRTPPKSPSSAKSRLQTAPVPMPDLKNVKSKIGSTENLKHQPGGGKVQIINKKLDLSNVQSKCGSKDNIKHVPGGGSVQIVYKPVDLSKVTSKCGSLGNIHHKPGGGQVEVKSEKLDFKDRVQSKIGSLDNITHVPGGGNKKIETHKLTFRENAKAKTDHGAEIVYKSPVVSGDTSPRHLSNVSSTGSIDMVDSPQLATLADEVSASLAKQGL
Measurement protocol: Biacore X100 SPR of anti-tau mAbs on immobilised htau40
Assay type: binding
Stated conditions: newly converted mAbs, Table 25 (Example 28), hT40
Reported metric: kd (s⁻¹)

>  <Molecule>
3aG3: anti-tau clone, SEQ ID NO: 424 (protein, 3aG3 amino acid sequence) scFv: QVQLQESGPSLVKPSQTLSLTCTVSGFSLSSNGVGWVRQAPGKVPEWVGDISSSGKAYANPALKSRLSITRDTAKTQVFLSLSSVTTEDTAVYYCVRCRDGGVSYGYDIDYWGPGLLVTVSSEGKSSGASGESKVDDQAVLTQPPSVSGSPGQRVSITCSGSSSNIGGGNYLSWFQQVPGSAPKLLIYGATSRASGVPDRFSGSRSGNTATLTISSLQAEDEADYYCASFDTSSGGIFGAGTRLTVLG

>  <Test value>
0.004751

$$$$
